- Test system: RPMI-8226 leukemia
- PROTOCOL_TEXT: NCI tumour cell line growth inhibition, 48 h; in the data active means GI50 below about 0.43 µM; inactive means the rest
Reply using exactly one outcome from true for active, false for inactive

Recorded results for 3 compounds are shown here.
INSERT INTO results (compound, experimental_system, class) VALUES
  ('O=c1cc(-c2ccccc2)oc2c(O)c(O)ccc12', 'RPMI-8226 leukemia', 'false'),
  ('COc1ccc(-c2oc3ncnc(N)c3c2-c2ccc(NC(=O)Nc3cc(C(F)(F)F)ccc3F)cc2)cc1', 'RPMI-8226 leukemia', 'false'),
  ('C=C(C)[C@@H]1C/C=C(/COC(C)=O)CC[C@H]2O[C@@]2(C)CC/C=C(\C)CC1', 'RPMI-8226 leukemia', 'false');

Recorded test call requested for N#Cc1c(N)c(C(=O)c2ccc3c(c2)OCCO3)n2c1CCCC2
false

Recorded test call requested for NC(=O)c1ccc(I)c([N+](=O)[O-])c1
false

Recorded test call requested for C=C[C@@H]1CCC/C=C/[C@@H]2C[C@H](O)C[C@H]2[C@H](O)/C=C/C(=O)O1
false

Recorded test call requested for CC[C@H](C)[C@H](NC(=O)c1ncccn1)C(=O)N(C)[C@H](C[C@@H](OC(C)=O)c1nc(C(=O)N[C@@H](Cc2ccccc2)C[C@H](C)C(=O)OC)cs1)C(C)C
false

Recorded test call requested for COc1cccc(C2SC(C)C(=O)N2NC(=O)C(O)c2ccccc2)c1 (configuration not stated)
false

Recorded test call requested for [Mn+3].[O-][Cl+3]([O-])([O-])O.[O-]c1ccccc1C=NCCN1CC1.[O-]c1ccccc1C=NCCN1CC1
false

Recorded test call requested for COC(=O)[C@@H](C)C[C@H](Cc1ccc(F)cc1)NC(=O)c1csc([C@@H](C[C@H](C(C)C)N(C)C(=O)[C@@H](NC(=O)[C@H]2CCCCN2C)C2CC2)OC(C)=O)n1
true

Recorded test call requested for N#Cc1ccc2[nH]cc(Cc3c[nH]c4ccc(C#N)cc34)c2c1
false

Recorded test call requested for Cn1cnc(SC2=CC(=O)C=C3S[C@H]4C[C@@]23c2c(c(O)c3c5c2=NCCC=5C=N3)N4)c1CC(N)C(=O)O (some centres not stated)
false
